# TARGET SYSTEM: T1, Anti-CD28 Fab (SEQ ID NOs: 202, 203)
# T1 construct: biotinylated and captured on neutravidin coated plates in the phage ELISA
# T1 sequence (VH, as listed by the source, chain 1 of 2): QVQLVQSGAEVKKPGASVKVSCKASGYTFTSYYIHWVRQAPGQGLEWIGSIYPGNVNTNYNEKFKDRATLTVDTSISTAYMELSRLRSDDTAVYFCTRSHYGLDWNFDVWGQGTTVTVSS
# T1 sequence (VL, as listed by the source, chain 2 of 2): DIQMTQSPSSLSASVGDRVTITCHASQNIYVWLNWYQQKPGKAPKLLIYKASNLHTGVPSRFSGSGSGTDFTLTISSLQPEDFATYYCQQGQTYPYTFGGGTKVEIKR
# MEASUREMENT NOTES: phage ELISA, Fab on plate;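 further: crude clonal phage supernatants added to wells pretreated with blocking buffer with or without CD28 antigen, then bound phage read out via HRP-linked anti-M13 antibody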
Item-by-item account of Anti-CD28 Fab (SEQ ID NOs: 202, 203) signal
Reply with just the number.

{"BINDER": "YCEGHLKEYMQKCL [Phage-714]", "MEASURED": 1.17}
{"BINDER": "YCEGHLEIYLAKCL [Phage-655]", "MEASURED": 1.32}
{"BINDER": "YCEGHTQEYMQKCL [Phage-688]", "MEASURED": 1.24}
{"BINDER": "YCSGHLPEYMDKCL [Phage-619]", "MEASURED": 1.39}
{"BINDER": "YCDGHSWEYLGKCL [Phage-703]", "MEASURED": 1.2}
{"BINDER": "YCDGHSEQYMAKCL [Phage-687]", "MEASURED": 1.24}
{"BINDER": "YCDGHLALYMWKCL [Phage-637]", "MEASURED": 1.36}

Proceed to the following item.
Could you tell me which Anti-CD28 Fab (SEQ ID NOs: 202, 203) signal is on file for YCEGHHPWYVQKCL [Phage-621] ? 1.39
